# Measured on: T1, CasX variant 515 (synthetic construct)
# T1 chain: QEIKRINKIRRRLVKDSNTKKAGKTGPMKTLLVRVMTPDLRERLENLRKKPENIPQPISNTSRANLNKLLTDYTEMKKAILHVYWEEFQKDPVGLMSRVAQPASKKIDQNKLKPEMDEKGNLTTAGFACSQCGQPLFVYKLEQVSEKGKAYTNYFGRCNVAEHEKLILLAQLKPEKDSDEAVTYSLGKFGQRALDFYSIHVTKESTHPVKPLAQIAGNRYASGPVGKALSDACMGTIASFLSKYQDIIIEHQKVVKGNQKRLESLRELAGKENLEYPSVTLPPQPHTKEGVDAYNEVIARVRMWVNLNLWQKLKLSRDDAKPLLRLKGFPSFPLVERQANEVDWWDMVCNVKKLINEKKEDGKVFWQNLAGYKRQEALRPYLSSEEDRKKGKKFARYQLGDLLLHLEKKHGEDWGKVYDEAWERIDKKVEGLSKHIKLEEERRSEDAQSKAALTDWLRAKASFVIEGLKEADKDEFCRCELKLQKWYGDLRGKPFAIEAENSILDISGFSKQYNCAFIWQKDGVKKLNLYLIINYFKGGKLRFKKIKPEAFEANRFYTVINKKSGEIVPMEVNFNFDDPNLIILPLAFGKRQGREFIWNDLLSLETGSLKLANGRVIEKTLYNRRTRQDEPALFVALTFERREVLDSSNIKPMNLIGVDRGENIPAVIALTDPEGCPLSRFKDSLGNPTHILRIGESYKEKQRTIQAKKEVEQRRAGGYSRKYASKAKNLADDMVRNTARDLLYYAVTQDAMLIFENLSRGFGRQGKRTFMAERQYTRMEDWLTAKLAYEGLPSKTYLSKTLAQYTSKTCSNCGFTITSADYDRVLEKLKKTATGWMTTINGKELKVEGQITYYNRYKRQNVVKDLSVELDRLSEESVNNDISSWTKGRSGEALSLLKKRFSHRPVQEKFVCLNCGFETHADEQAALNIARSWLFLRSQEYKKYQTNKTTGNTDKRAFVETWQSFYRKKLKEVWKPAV
# Assay: cleavage_in_vitro
Property measured: activity (s⁻¹)

Binder	Property measured	Endpoint value
sgRNA 235.7.9 ; 7.9 target (ssRNA ; dsDNA, 5' amino modifier C6) RNA: ACUGGCGCUUCUAUCUGAUUACUCUGAGCGCCAUCACCAGCGACUAUGUCGUAGUGGGUAAAGCCGCUUACGGACUUCGGUCCGUAAGAGGCAUCAGAGGUGUAGUACAAGAGAUAGAA DNA 1: TTTCAGTGGGGGTGAATTCAGTGTAGTACAAGAGATAGAAAGACCAGTCCTTGCTGAAAG DNA 2: CTTTCAGCAAGGACTGGTCTTTCTATCTCTTGTACTACACTGAATTCACCCCCACTGAAA	activity	0.17
sgRNA 316.7.37 ; 7.37 target (ssRNA ; dsDNA, 5' amino modifier C6) RNA: ACUGGCGCUUCUAUCUGAUUACUCUGAGCGCCAUCACCAGCGACUAUGUCGUAGUGGGUAAAGCUCCCUCUUCGGAGGGAGCAUCAGAGGGCCGAGAUGUCUCGCUCCG DNA 1: TGAAGCTGACAGCATTCGGGCCGAGATGTCTCGCTCCGTGGCCTTAGCTGTGCTCGCGCT DNA 2: AGCGCGAGCACAGCTAAGGCCACGGAGCGAGACATCTCGGCCCGAATGCTGTCAGCTTCA	activity	0.0851
sgRNA 2.7.9 ; 7.9 target (ssRNA ; dsDNA, 5' amino modifier C6) RNA: UACUGGCGCUUUUAUCUCAUUACUUUGAGAGCCAUCACCAGCGACUAUGUCGUAUGGGUAAAGCGCUUAUUUAUCGGAGAGAAAUCCGAUAAAUAAGAAGCAUCAAAGGUGUAGUACAAGAGAUAGAA DNA 1: TTTCAGTGGGGGTGAATTCAGTGTAGTACAAGAGATAGAAAGACCAGTCCTTGCTGAAAG DNA 2: CTTTCAGCAAGGACTGGTCTTTCTATCTCTTGTACTACACTGAATTCACCCCCACTGAAA	activity	0.135
sgRNA 174.7.37 ; 7.37 target (ssRNA ; dsDNA, 5' amino modifier C6) RNA: ACUGGCGCUUUUAUCUGAUUACUUUGAGAGCCAUCACCAGCGACUAUGUCGUAGUGGGUAAAGCUCCCUCUUCGGAGGGAGCAUCAAAGGGCCGAGAUGUCUCGCUCCG DNA 1: TGAAGCTGACAGCATTCGGGCCGAGATGTCTCGCTCCGTGGCCTTAGCTGTGCTCGCGCT DNA 2: AGCGCGAGCACAGCTAAGGCCACGGAGCGAGACATCTCGGCCCGAATGCTGTCAGCTTCA	activity	0.0534
sgRNA 316.7.9 ; 7.9 target (ssRNA ; dsDNA, 5' amino modifier C6) RNA: ACUGGCGCUUCUAUCUGAUUACUCUGAGCGCCAUCACCAGCGACUAUGUCGUAGUGGGUAAAGCUCCCUCUUCGGAGGGAGCAUCAGAGGUGUAGUACAAGAGAUAGAA DNA 1: TTTCAGTGGGGGTGAATTCAGTGTAGTACAAGAGATAGAAAGACCAGTCCTTGCTGAAAG DNA 2: CTTTCAGCAAGGACTGGTCTTTCTATCTCTTGTACTACACTGAATTCACCCCCACTGAAA	activity	0.141
